Target: Glucagon receptor (Homo sapiens)
Sequence (P47871 whole entry): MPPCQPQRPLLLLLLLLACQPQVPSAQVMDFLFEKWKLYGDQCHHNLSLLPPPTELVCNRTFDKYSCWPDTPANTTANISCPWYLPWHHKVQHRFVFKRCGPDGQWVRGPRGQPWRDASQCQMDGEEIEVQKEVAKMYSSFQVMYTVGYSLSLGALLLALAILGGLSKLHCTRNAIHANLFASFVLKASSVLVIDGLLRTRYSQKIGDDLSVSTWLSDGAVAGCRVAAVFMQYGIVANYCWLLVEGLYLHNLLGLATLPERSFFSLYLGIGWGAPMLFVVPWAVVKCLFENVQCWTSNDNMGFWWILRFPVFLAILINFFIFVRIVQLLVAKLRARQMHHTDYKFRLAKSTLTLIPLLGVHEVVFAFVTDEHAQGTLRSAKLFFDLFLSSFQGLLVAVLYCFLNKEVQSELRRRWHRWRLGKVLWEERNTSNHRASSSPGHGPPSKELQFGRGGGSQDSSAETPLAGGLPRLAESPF
Experiment: Antagonist activity at human GCGR assessed as inhibition of glucagon-induced cAMP accumulation in cell-based assay
Format: functional
property-name: Kb (µM)

molecule="CCCC(Oc1cnn(-c2cccc(Cl)c2)c1)c1ccc(C(=O)NCCC(=O)O)cc1 (racemic)" result_modifier== readout_number=16.9
molecule="CCCC(Oc1cnn(-c2ccc(C(F)(F)F)cn2)c1)c1ccc(C(=O)NCCC(=O)O)cc1 (racemic)" result_modifier== readout_number=16.4
molecule="O=C(O)CCNC(=O)c1ccc(C(CCC(F)(F)F)Nc2cnn(-c3ccc(C(F)(F)F)cc3)c2)cc1 (single isomer, unassigned; (+))" result_modifier== readout_number=0.1
molecule="CCCC(Oc1cnn(-c2cccc(OC)c2)c1)c1ccc(C(=O)NCCC(=O)O)cc1 (racemic)" result_modifier=> readout_number=19.1
molecule="CCCC(Oc1cnn(-c2ccc(OC)cc2)c1)c1ccc(C(=O)NCCC(=O)O)cc1 (racemic)" result_modifier=> readout_number=21.3
molecule="CCCC(Oc1cnn(-c2cccc(C)c2)c1)c1ccc(C(=O)NCCC(=O)O)cc1 (racemic)" result_modifier=> readout_number=20.9

Sourced from ChEMBL document CHEMBL1933020
